Value source: PubChem BioAssay (NCI)

Measured TGI values are reported for all entries that follow.
system: SF-539 CNS; test: NCI tumour cell line growth inhibition, 48 h

INPUT: Give a short answer stating reported TGI for CN(C)c1ncnc2c1ncn2C1C=CC(COS(N)(=O)=O)C1 (stereo unspecified) .
OUTPUT: > 100 µM

INPUT: Give the reported TGI for this compound. Cc1cc(S(=O)(=O)Nc2nc(N)nc(N3CCOCC3)n2)c(SCC(=O)O)cc1Cl
OUTPUT: > 10 µM

INPUT: Give the measured TGI for Nc1nc(N)nc(-c2cnccn2)n1
OUTPUT: > 100 µM

INPUT: Indicate its recorded TGI; the compound in question is BrC(Br)(Br)c1cnc2ccccc2n1
OUTPUT: 4.86 µM

INPUT: State its TGI for this compound: O=C(O)c1ccccn1
OUTPUT: > 100 µM

INPUT: Name the recorded TGI of the compound listed here: CC(=O)OCC(OC(C)=O)C(OC(C)=O)C(OC(C)=O)C(=O)CNn1c(-c2ccccc2)nc2ccc(Br)cc2c1=O (stereo unspecified)
OUTPUT: > 100 µM

INPUT: Determine from records and report TGI for CN(C)CCNC(=O)c1cccc2nc3c4ccccc4c4ccccc4c3nc12
OUTPUT: 3.18 µM

INPUT: Quickly give me recorded TGI for NC(N)=N/N=C/c1cccc(Cl)c1Cl
OUTPUT: 31.2 µM

INPUT: Write down TGI measured for item CCc1ccc(/C(C)=N/NC(N)=S)cc1
OUTPUT: > 100 µM

INPUT: Give the reported TGI for this compound. C/C(=N\NS(=O)(=O)c1ccc(C)cc1)C(CN(C)C)C(c1ccccc1)c1c(O)c2ccccc2oc1=O (stereo unspecified)
OUTPUT: > 100 µM

INPUT: Look up and state reported TGI for CC12CCc3ccccc3C1=Nc1ccccc12 (stereo unspecified)
OUTPUT: 78.5 µM
